Test system: HEK-293T
assay-explanation: Multiplex assay against HEK293T;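 note: share of the cells with healthy nuclei that show this phenotype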
Type: toxicity, cell-based
experimental-setup: human, 12 h, 10 µM, compound concentration 10 uM, replicate 1
Entries and their measured Population Tubulin-Different-Phenotype (%) follow.

Below are worked cases with known answers.
| compound | system | obs-value |
| --- | --- | --- |
| Cc1c[nH]c2nccc(Oc3c(F)cc(Nc4cc(Cl)nc(N)n4)cc3F)c12 | HEK-293T | 5% |
| COc1ccccc1CN[C@H]1C2CCN(CC2)[C@H]1C(c1ccccc1)c1ccccc1 | HEK-293T | 97% |
| CCc1nn(CCCN2CCN(c3cccc(Cl)c3)CC2)c(=O)n1CCOc1ccccc1.Cl [NEFAZODONE HYDROCHLORIDE] | HEK-293T | 81% |

Now consider a different compound.
query: Give me measured Population Tubulin-Different-Phenotype (%), please, for this compound: CC1=C(C(=O)Nc2cc3cn[nH]c3cc2F)C(c2ccc(C(F)(F)F)cc2)CC(=O)N1 (centres undefined)
result: 36%
